Cited source: patent US20220064331A1

- target-or-system: T1, mouse KLB (mouse, UniProt Q99N32 53-990)
- T1 construct: expressed from KLB cDNA on HEK293T cells and read by FACS; also called msKLB
- T1 sequence: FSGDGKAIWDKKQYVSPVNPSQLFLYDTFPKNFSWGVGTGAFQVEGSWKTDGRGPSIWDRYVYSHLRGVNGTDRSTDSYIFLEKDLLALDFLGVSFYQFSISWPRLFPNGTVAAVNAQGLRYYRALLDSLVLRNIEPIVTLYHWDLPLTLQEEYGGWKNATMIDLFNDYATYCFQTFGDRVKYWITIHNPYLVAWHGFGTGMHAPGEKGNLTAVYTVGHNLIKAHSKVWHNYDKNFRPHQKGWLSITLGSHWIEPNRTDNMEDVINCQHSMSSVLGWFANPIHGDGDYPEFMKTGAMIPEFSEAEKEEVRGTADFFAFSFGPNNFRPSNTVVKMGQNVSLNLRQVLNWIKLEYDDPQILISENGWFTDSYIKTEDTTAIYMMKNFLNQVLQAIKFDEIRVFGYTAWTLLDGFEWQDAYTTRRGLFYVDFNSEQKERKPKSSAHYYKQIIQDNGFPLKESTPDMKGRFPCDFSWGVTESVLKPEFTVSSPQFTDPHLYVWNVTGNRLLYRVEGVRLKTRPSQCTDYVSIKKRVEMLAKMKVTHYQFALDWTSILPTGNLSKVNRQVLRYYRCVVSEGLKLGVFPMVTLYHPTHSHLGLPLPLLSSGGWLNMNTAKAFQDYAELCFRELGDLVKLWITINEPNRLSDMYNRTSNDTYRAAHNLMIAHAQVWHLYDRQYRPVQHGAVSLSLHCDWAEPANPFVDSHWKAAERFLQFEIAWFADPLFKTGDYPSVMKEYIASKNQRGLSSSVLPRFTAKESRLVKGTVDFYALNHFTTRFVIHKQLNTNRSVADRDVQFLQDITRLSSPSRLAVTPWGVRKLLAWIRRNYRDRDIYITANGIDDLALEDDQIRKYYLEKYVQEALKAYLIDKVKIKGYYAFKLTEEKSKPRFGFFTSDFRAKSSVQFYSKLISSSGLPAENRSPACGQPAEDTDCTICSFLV
- assay-notes: FACS on transfected HEK293T cells
observed-property: binding result

14E6 (antibody, V domains shown, murine hybridoma-derived anti-KLB antibody) VH: EVPLQQSGPELVKPGATVKISCKPSGDTFTEYTMNWVRQSHGKSLEWIGGINPNNGETSYNQKFKGKATLTVDKSSSTAFMDLRILTSEDSAVYFCARKTTNYWGQGTTLIVSS VL: DIQMTQSPSSLSASLGERVSLTCRASQEISGYLSWLQQKPDGTIKRLIYAASTLDSGVPRRFSGSRSGSDYSLTISSLESEDFADYYCLQYGSYPWTFGGGTKLELK : binds
